# procedureSummary: Inhibition of Tel-fused FGFR4 (unknown origin) expressed in mouse BA/F3 cells after 48 hrs by luciferase reporter gene assay in absence of recombinant mouse IL3
pIC50: −log10 of the molar value.
measuredAttribute: pIC50

N#Cc1ccc(-c2cnc3ccc(NCc4ccccc4)nn23)cc1: 5.23
O=C(O)CN1CCN(c2cc(-c3cnc4ccc(N5CCC[C@@H]5c5cccc(F)c5)nn34)ccn2)CC1: 5.28
OC1CCN(c2cc(-c3cnc4ccc(N5CCC[C@@H]5c5cccc(F)c5)nn34)ccn2)CC1: 5.36

====

# procedureSummary: Inhibition of Tel-fused PDGFRbeta (unknown origin) expressed in mouse BA/F3 cells after 48 hrs by luciferase reporter gene assay in absence of recombinant mouse IL3
pIC50: −log10 of the molar value.
measuredAttribute: pIC50

N#Cc1ccc(-c2cnc3ccc(NCc4ccccc4)nn23)cc1: 5.70

I. OC1CCN(c2cc(-c3cnc4ccc(N5CCC[C@@H]5c5cccc(F)c5)nn34)ccn2)CC1
II. O=C(O)CN1CCN(c2cc(-c3cnc4ccc(N5CCC[C@@H]5c5cccc(F)c5)nn34)ccn2)CC1
For the two items I and II , which reports the higher pIC50 value? Lab note: record the label of whichever item you select.
II
(II: 5.66, I: 5.34)

====

# procedureSummary: Inhibition of Tel-fused ALK (unknown origin) expressed in mouse BA/F3 cells after 48 hrs by luciferase reporter gene assay in absence of recombinant mouse IL3
measuredAttribute: IC50 (µM)

N#Cc1ccc(-c2cnc3ccc(NCc4ccccc4)nn23)cc1: 3.1

P. O=C(O)CN1CCN(c2cc(-c3cnc4ccc(N5CCC[C@@H]5c5cccc(F)c5)nn34)ccn2)CC1
Q. OC1CCN(c2cc(-c3cnc4ccc(N5CCC[C@@H]5c5cccc(F)c5)nn34)ccn2)CC1
// which entry reports the smaller IC50, P or Q ? Mark your answer with the label of the selected entry.
P
(P: 2.2 µM, Q: 3.9 µM)

====

# procedureSummary: Inhibition of Tel-fused FGR (unknown origin) expressed in mouse BA/F3 cells after 48 hrs by luciferase reporter gene assay in absence of recombinant mouse IL3
measuredAttribute: IC50 (µM)

N#Cc1ccc(-c2cnc3ccc(NCc4ccccc4)nn23)cc1: 6.4
Fc1cccc([C@H]2CCCN2c2ccc3ncc(-c4ccccn4)n3n2)c1: 8.7

====

# procedureSummary: Inhibition of Tel-fused INSR (unknown origin) expressed in mouse BA/F3 cells after 48 hrs by luciferase reporter gene assay in absence of recombinant mouse IL3
measuredAttribute: IC50 (µM)

A. O=C(O)CN1CCN(c2cc(-c3cnc4ccc(N5CCC[C@@H]5c5cccc(F)c5)nn34)ccn2)CC1
B. N#Cc1ccc(-c2cnc3ccc(NCc4ccccc4)nn23)cc1
Which entry shows the lesser value of IC50 here, A or B ? API: response body contains the label of the selected item.
A

====

# procedureSummary: Inhibition of Tel-fused FLT1 (unknown origin) expressed in mouse BA/F3 cells after 48 hrs by luciferase reporter gene assay in absence of recombinant mouse IL3
pIC50: −log10 of the molar value.
measuredAttribute: pIC50

I. OC1CCN(c2cc(-c3cnc4ccc(N5CCC[C@@H]5c5cccc(F)c5)nn34)ccn2)CC1
II. N#Cc1ccc(-c2cnc3ccc(NCc4ccccc4)nn23)cc1
Field: lower pIC50 | Options: I / II Kindly give the label for the entry you pick.
I
(I: 5.28, II: 5.52)

====

# procedureSummary: Inhibition of Tel-fused TYRO3 (unknown origin) expressed in mouse BA/F3 cells after 48 hrs by luciferase reporter gene assay in absence of recombinant mouse IL3
pIC50: −log10 of the molar value.
measuredAttribute: pIC50

OC1CCN(c2cc(-c3cnc4ccc(N5CCC[C@@H]5c5cccc(F)c5)nn34)ccn2)CC1: 5.30
O=C(O)CN1CCN(c2cc(-c3cnc4ccc(N5CCC[C@@H]5c5cccc(F)c5)nn34)ccn2)CC1: 5.28
